Please provide measured Log 1/C for the entries that follow.
species: Mus musculus; experiment: log(1/C) was estimated in mice; assay type: organism-based; conditions: in vivo
Answers are plain numbers.

State recorded Log 1/C for all listed molecules.
1. CO[C@@]12C(COC(N)=O)C3=C(C(=O)C(C)=C(OCCSC)C3=O)N1CC1NC12 (some centres undefined)
2. CO[C@@]12C(COC(N)=O)C3=C(C(=O)C(C)=C(OCC4CC4)C3=O)N1CC1NC12 (some centres undefined)
3. CO[C@@]12C(COC(N)=O)C3=C(C(=O)C(C)=C(OC4CC4)C3=O)N1CC1NC12 (some centres undefined)

1: 6.02; 2: 5.97; 3: 6.89

State recorded Log 1/C for all listed molecules.
1. COCC(C)OC1=C(C)C(=O)C2=C(C1=O)C(COC(N)=O)[C@@]1(OC)C3NC3CN21 (some centres undefined)
2. CO[C@@]12C(COC(N)=O)C3=C(C(=O)C(C)=C(OCCSCCSCCO)C3=O)N1CC1NC12 (some centres undefined)
3. CO[C@@]12C(COC(N)=O)C3=C(C(=O)C(C)=C(OCC4OCCO4)C3=O)N1CC1NC12 (some centres undefined)
4. CO[C@@]12C(COC(N)=O)C3=C(C(=O)C(C)=C(OCc4ccccn4)C3=O)N1CC1NC12 (some centres undefined)
5. CO[C@@]12C(COC(N)=O)C3=C(C(=O)C(C)=C(OCc4cccs4)C3=O)N1CC1NC12 (some centres undefined)

[6.21, 5.84, 7.23, 6.04, 5.15]
